- Test system: Escherichia coli TOP10;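 also: peptides expressed intracellularly from a pBAD plasmid library in pooled LB shake-flask culture, induced with 0.3% L-arabinose, DNA abundance read by NGS, three biological replicates, DESeq2 with apeglm shrinkage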
- method-notes: shrunken log2 fold change of peptide-encoding DNA abundance (4.5 h post-induction vs induction); higher = less antimicrobial activity (less host growth inhibition)
- experimental-conditions: time post-induction: 4.5 h; library: site-saturation at positions 5, 18, 19, 20
Listed next: entries and their corresponding shrunken log2 fold change.
// no unit, no text: just the number

{"columns": ["sequence-text", "shrunken log2 fold change"],
 "data": [
  ["RRIRGRPPRLPRPRPRPCHQPRP", -0.0488]
]}

What measured shrunken log2 fold change is associated with RRIRDRPPRLPRPRPRPKHEPRP on Escherichia coli TOP10?
0.134

What measured shrunken log2 fold change is associated with RRIRCRPPRLPRPRPRPNEVPRP on Escherichia coli TOP10?
-0.153

What measured shrunken log2 fold change is associated with RRIRCRPPRLPRPRPRPIHNPRP on Escherichia coli TOP10?
-0.725

What measured shrunken log2 fold change is associated with RRIRPRPPRLPRPRPRPIWWPRP on Escherichia coli TOP10?
0.665
